- Test system: COLO 205 colon
- test-summary: NCI-60 one-dose screen, 48 h (100 = growth as untreated, 0 = no growth, -100 = all killed)
- test-settings: 10 µM unless noted
About 83,000 compounds went through this panel and 20% of them were active in at least one assay; those are over-represented in the sample as a whole.
Quick reference: growth of the listed items.
Answer in %, number only, no unit symbol.

Which growth is reported for this molecule? C[C@]12CC[C@H]3[C@@H](C[C@@H]4SC(Nc5ccccc5)=N[C@@]45C/C(=N/O)CC[C@]35C)[C@@H]1CCC2=O
97

Others:
Need growth, item CC[C@H](C)[C@H](NC(=O)[C@H]1CCCCN1C)C(=O)N(C)[C@H](C[C@@H](OC(C)=O)c1nc(C(=O)NC23C4C5C2C2C3C4C52C(=O)OC)cs1)C(C)C (stereo partly specified)
-42.8

Now consider C[N+]1(C)CCCC1c1cccnc1 (stereo unspecified) .
109

Now the molecule O=C(O)c1cc([N+](=O)[O-])cc([N+](=O)[O-])c1
118

Same again, this time with C/C(=N/OC(=O)N(C)C)c1ccc(Cl)c(Cl)c1
111

Thanks! And CCN(CC)CCn1c(=O)n(C)c2ccccc21 ?
109

Now try CCN1C(=O)CC(=O)N(CC)C1=S .
115

Same for Oc1ccccc1C=NCCN=Cc1ccccc1O.[Fe]
108

Input O=C1NC(=O)C(=C/C=C/c2ccccc2)C(=O)N1
-47.1

What would you report for O=C(O)CNCP(=O)(O)O ?
119

Request: N#Cc1ccc(Cl)cc1
117

====

- Tested on: LOX IMVI melanoma
- test-summary: NCI-60 one-dose screen, 48 h
- test-settings: 10 µM unless noted
About 83,000 compounds went through this panel and 20% of them were active in at least one assay; those are over-represented in the sample as a whole. The source made the active and inactive calls. How the source made its calls: active means growth percent below 10; inactive means the rest.
API: response.call in true (1) (active), false (0) (inactive)

Some entries whose results are on file:
GET /call?item= CC(=O)C(N)Cc1ccccc1 (configuration not stated) returns the recorded outcome of this test.
false (0)

What do you have for CNC(=O)O/N=C(\SC)C(=O)N(C)C ?
false (0)

How about N[C@@H](CCC(=O)CCl)C(=O)O ?
false (0)

Cool, now CC1=C2[C@H]3OC(=O)[C@@H](C)[C@@H]3CC[C@@]2(C)C=CC1=O
false (0)

Cc1ccc(S(=O)(=O)n2cc([C@@]3(O)C[C@H](CSC#N)OC3=O)c3ccccc32)cc1 , same question.
false (0)

More entries:
Could you kindly confirm the outcome this assay logged for COc1cc2c(cc1OC)[C@@H]1C(=O)c3ccc4c(c3O[C@@H]1CO2)C[C@H](C(C)C)O4 ?
false (0)

Field entry: [N-]=[N+]=CC(=O)CCC(=O)C=[N+]=[N-]
false (0)

Okay, and CC[C@H](C)[C@H](NC(=O)[C@H]1CCCCN1C)C(=O)N(C)[C@H](CCc1nc(C(=O)N[C@@H](Cc2ccccc2)C[C@H](C)C(=O)O)cs1)C(C)C ?
false (0)

====

- Tested on: SW-620 colon
- test-summary: NCI-60 one-dose screen, 48 h
- test-settings: 10 µM unless noted
- Method: Growth inhibition of the SW-620 human tumor cell line is measured as a screen for anti-cancer activity. Cells are grown in 96 well plates and exposed to the test compound for 48 hours. Compounds are tested at a single concentration, which is 10^-5 M for most compounds. The reported endpoint is percent growth (GI% or GIPRCNT), where numbers from 0 - 100% represent growth inhibition, and numbers from -100% - 0 represent cell death. For example, a value of 40 represents 60% growth inhibition. […]
This is part of a sample that, as a whole, favours compounds with a hit. Of some 83,000 tested, about 20% had one in any assay. Active and inactive are the calls of the source. Rule for the calls: active = growth percent below 10; inactive = the rest.
Return exactly one item of Y for active, N for inactive

Entry CNC(=O)Oc1ccc(Cl)cc1SSc1cc(Cl)ccc1OC(=O)NC : call = ?
N

Continuing:
Hi team, can someone confirm the assay call for CC[C@H](CC[C@@H](C)[C@H]1CC[C@H]2[C@@H]3CC[C@H]4C[C@]5(CC[C@]4(C)[C@H]3CC[C@]12C)OO[C@](C)(C(F)(F)F)O5)C(C)C ?
N

Consider next the compound CC1=C2[C@H]3OC(=O)[C@@H](C)[C@@H]3CC[C@@]2(C)C=CC1=O in the same way.
N

Same thing, different compound: Oc1ccccc1C=NCCN=Cc1ccccc1O.[Fe]
N
